target: Peroxisome proliferator-activated receptor gamma (Homo sapiens) (UniProt P37231); assay: qHTS assay to identify small molecule antagonists of the peroxisome proliferator-activated receptor gamma (PPARg) signaling pathway (AID 743191); conditions: HEK293H PPARg-UAS-bla, beta-lactamase ratio, antagonist, 17 h; series mostly up to 62.6 µM; also: nearly all actives have a fitted effect of over 30% in size
Sequence (P37231 whole entry, looked up): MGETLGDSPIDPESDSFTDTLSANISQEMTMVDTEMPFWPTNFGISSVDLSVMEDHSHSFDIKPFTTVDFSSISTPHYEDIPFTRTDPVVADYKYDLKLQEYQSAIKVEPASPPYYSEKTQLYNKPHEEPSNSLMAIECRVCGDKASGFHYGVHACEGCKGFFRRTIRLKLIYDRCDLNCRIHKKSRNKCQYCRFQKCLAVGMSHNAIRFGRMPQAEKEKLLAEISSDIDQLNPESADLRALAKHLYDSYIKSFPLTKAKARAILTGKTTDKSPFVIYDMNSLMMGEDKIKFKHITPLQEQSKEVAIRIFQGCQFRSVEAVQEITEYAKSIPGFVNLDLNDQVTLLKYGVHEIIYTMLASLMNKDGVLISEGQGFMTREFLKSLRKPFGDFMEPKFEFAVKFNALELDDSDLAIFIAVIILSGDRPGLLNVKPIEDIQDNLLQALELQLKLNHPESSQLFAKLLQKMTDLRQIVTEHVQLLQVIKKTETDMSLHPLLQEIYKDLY
Results filed as inconclusive are left out. The source made the active and inactive calls. Calls follow the shape of the full dose curve.
readout_kind: outcome

[in] Test system Peroxisome proliferator-activated receptor gamma (Homo sapiens) (UniProt P37231); read-out outcome; what value for CCCCCCC(C)O (stereo not drawn) ?
[out] inactive

[in] Query the reported outcome for Peroxisome proliferator-activated receptor gamma (Homo sapiens) (UniProt P37231); item: CCCCCCCCCCCCO
[out] inactive

[in] Quick check: outcome on Peroxisome proliferator-activated receptor gamma (Homo sapiens) (UniProt P37231), item OC[C@@H](O)[C@@H](O[C@@H]1O[C@H](CO)[C@H](O)[C@H](O)[C@H]1O)[C@H](O)[C@@H](O)CO ?
[out] inactive

[in] Which outcome is reported with Peroxisome proliferator-activated receptor gamma (Homo sapiens) (UniProt P37231) for this entry: CC(=O)[C@@]1(O)CC[C@H]2[C@@H]3C[C@H](C)C4=CC(=O)C=C[C@]4(C)[C@@]3(F)[C@@H](O)C[C@@]21C ?
[out] inactive

Further cases:
[in] // fetch Peroxisome proliferator-activated receptor gamma (Homo sapiens) (UniProt P37231) outcome for CC(C)=CCO
[out] inactive

[in] Find the measured outcome: item c1ccc2cc3ccccc3cc2c1 , target or system Peroxisome proliferator-activated receptor gamma (Homo sapiens) (UniProt P37231).
[out] inactive

[in] Report outcome for C=CC(C)(O)CCC=C(C)C (stereo not drawn) tested on Peroxisome proliferator-activated receptor gamma (Homo sapiens) (UniProt P37231).
[out] inactive

====

molecular target: Thyrotropin receptor (Homo sapiens) (UniProt P16473); test: qHTS assay to identify small molecule agonists of the thyroid stimulating hormone receptor (TSHR) signaling pathway (AID 1224843); conditions: TSHR-HEK293 cells, cAMP HTRF, agonist mode, 30 min; series mostly up to 92.4 µM; also: nearly all actives have a fitted effect of over 45% in size
Sequence (P16473 whole entry, looked up): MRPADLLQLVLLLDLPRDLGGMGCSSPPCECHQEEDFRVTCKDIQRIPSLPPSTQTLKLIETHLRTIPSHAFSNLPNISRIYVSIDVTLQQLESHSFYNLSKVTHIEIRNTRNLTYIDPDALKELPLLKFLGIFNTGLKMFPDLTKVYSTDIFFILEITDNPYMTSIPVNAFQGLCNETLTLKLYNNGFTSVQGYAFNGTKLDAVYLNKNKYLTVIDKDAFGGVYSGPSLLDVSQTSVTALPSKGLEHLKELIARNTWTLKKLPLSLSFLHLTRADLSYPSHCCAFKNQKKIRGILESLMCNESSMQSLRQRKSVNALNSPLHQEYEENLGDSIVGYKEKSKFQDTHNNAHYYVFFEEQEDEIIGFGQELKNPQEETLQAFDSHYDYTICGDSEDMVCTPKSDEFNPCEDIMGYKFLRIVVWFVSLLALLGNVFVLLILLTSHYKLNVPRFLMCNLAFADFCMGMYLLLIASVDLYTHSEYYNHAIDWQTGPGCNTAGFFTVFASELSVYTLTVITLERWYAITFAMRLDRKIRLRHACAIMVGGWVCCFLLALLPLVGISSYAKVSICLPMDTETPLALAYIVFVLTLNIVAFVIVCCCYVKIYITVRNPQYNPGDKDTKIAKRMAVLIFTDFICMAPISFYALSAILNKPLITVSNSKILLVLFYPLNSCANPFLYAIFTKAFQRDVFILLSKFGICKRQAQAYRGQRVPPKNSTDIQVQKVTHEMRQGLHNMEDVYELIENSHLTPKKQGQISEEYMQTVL
Results filed as inconclusive are left out. The source made the active and inactive calls. Calls come from the whole dose curve.
Could you please pick one outcome from this set? 1 (active), -1 (inactive)

[in] Which result was noted for this molecule in the test: Cc1ccc(S(=O)(=O)NCl)cc1
[out] -1

More entries:
[in] Status in this test for CC(C)[C@@H]1CC[C@@H](C)CC1=O ?
[out] -1

[in] # fetch the recorded call for CCCCCC=O here
[out] -1

[in] GET /call?item= O=C(O)c1cc(=O)[nH]c(=O)[nH]1 returns the recorded outcome of this test.
[out] -1

[in] I would be grateful if you could indicate the recorded call for COc1ccc2nc(N)sc2c1 .
[out] -1

[in] Fill in: this test's call for COC(=O)C(C)Oc1ccc(Oc2ncc(C(F)(F)F)cc2Cl)cc1 (configuration not stated) is ___
[out] -1

[in] Test call for this molecule, please: CC(C)=CCO
[out] -1

[in] Which outcome was entered for the molecule Nc1ccc(O)c(N)c1 in this test?
[out] 1

[in] What is the recorded call for this molecule in the test? C=C[Si](OCCOC)(OCCOC)OCCOC
[out] -1

[in] How did this test come out for O=C(O)c1ccc(O)cc1 ?
[out] -1

[in] What outcome does the record of this test show for C[N+](C)(C)CCO ?
[out] -1

[in] What did the test return for c1ccc2cc3ccccc3cc2c1 ?
[out] -1

[in] In this assay, the call recorded for C=CC(=O)OCCCC was what?
[out] -1

[in] GET /call?item= OCCNCCO returns the recorded outcome of this test.
[out] -1

[in] For this molecule, state the assay outcome: CCC/C=C/C=O
[out] -1

[in] Called result for CC/C=C\C/C=C\C/C=C\CCCCCCCC(=O)O
[out] -1

[in] Could you check what this test reported for COc1ccc(C(=O)c2ccccc2O)c(O)c1 ?
[out] -1
